Recorded bioavailability for the following molecules
Assay: Oral bioavailability in Sprague-Dawley rat at 5 mg/kg
Format: ADME, organism-based
Conditions: in vivo
observed-property: bioavailability (%)

>  <molecule>
CNC(=O)c1c(-c2ccc(F)cc2)oc2cc3c(cc12)[C@H](C)NC(=O)CN3S(C)(=O)=O

>  <observed-property>
bioavailability

>  <value-reported>
14

$$$$
>  <molecule>
CNC(=O)c1c(-c2ccc(F)cc2)oc2cc3c(cc12)[C@@H](C)OCCN3S(C)(=O)=O

>  <observed-property>
bioavailability

>  <value-reported>
16

$$$$
>  <molecule>
CNC(=O)c1c(-c2ccc(F)cc2)oc2cc3c(cc12)[C@H](C)CCCN3S(C)(=O)=O

>  <observed-property>
bioavailability

>  <value-reported>
22

$$$$
>  <molecule>
CNC(=O)c1c(-c2ccc(F)cc2)oc2cc3c(cc12)C(C)OC(CS(C)(=O)=O)CN3S(C)(=O)=O (racemic)

>  <observed-property>
bioavailability

>  <value-reported>
30

$$$$
>  <molecule>
CNC(=O)c1c(-c2ccc(F)cc2)oc2cc3c(cc12)[C@H](C)O[C@H](CO)CN3S(C)(=O)=O

>  <observed-property>
bioavailability

>  <value-reported>
73

$$$$
>  <molecule>
CNC(=O)c1c(-c2ccc(F)cc2)oc2cc3c(cc12)[C@H](C)n1nncc1CN3S(C)(=O)=O

>  <observed-property>
bioavailability

>  <value-reported>
57

$$$$
>  <molecule>
CNC(=O)c1c(-c2ccc(F)cc2)oc2cc(N(CCO)S(C)(=O)=O)c(C3CC3)cc12 [NESBUVIR]

>  <observed-property>
bioavailability

>  <value-reported>
73

$$$$

====

Experiment: Intrinsic solubility of the compound
Format: physicochemical
observed-property: solubility

>  <molecule>
CNC(=O)c1c(-c2ccc(F)cc2)oc2cc3c(cc12)C(C)NCCN3S(C)(=O)=O (racemic)

>  <value-reported>
Soluble

$$$$
>  <molecule>
CNC(=O)c1c(-c2ccc(F)cc2)oc2cc3c(cc12)C(C)n1nnnc1CN3S(C)(=O)=O (racemic)

>  <value-reported>
Insoluble

$$$$
>  <molecule>
CNC(=O)c1c(-c2ccc(F)cc2)oc2cc3c(cc12)C(C)n1ccnc1CN3S(C)(=O)=O (racemic)

>  <value-reported>
Insoluble

$$$$
>  <molecule>
CNC(=O)c1c(-c2ccc(F)cc2)oc2cc3c(cc12)C(C)N(C)CCN3S(C)(=O)=O (racemic)

>  <value-reported>
Soluble

$$$$

====

Assay: Half life in Sprague-Dawley rat at 1 mg/kg, iv
Format: ADME, organism-based
Conditions: in vivo
observed-property: log10 half-life (log10 of the value in h)

>  <molecule>
CNC(=O)c1c(-c2ccc(F)cc2)oc2cc3c(cc12)C(C)OC(CS(C)(=O)=O)CN3S(C)(=O)=O (racemic)

>  <log10 half-life>
0.56

$$$$
>  <molecule>
CNC(=O)c1c(-c2ccc(F)cc2)oc2cc3c(cc12)[C@@H](C)OCCN3S(C)(=O)=O

>  <log10 half-life>
-0.47

$$$$
>  <molecule>
CNC(=O)c1c(-c2ccc(F)cc2)oc2cc3c(cc12)[C@H](C)O[C@H](CO)CN3S(C)(=O)=O

>  <log10 half-life>
0.12

$$$$
>  <molecule>
CNC(=O)c1c(-c2ccc(F)cc2)oc2cc3c(cc12)[C@H](C)n1nncc1CN3S(C)(=O)=O

>  <log10 half-life>
0.39

$$$$
>  <molecule>
CNC(=O)c1c(-c2ccc(F)cc2)oc2cc3c(cc12)[C@H](C)CCCN3S(C)(=O)=O

>  <log10 half-life>
-0.02

$$$$
>  <molecule>
CNC(=O)c1c(-c2ccc(F)cc2)oc2cc(N(CCO)S(C)(=O)=O)c(C3CC3)cc12

>  <log10 half-life>
0.44

$$$$
>  <molecule>
CNC(=O)c1c(-c2ccc(F)cc2)oc2cc3c(cc12)[C@H](C)NC(=O)CN3S(C)(=O)=O

>  <log10 half-life>
-0.17

$$$$

====

Assay: Metabolic stability in rat liver microsomes assessed as parent compound remaining after 60 mins
Type: ADME, microsome
Conditions: read-out: Stability
Lab note: anything with remaining at 1 h below 70% is marked MET; values at 70% or higher are marked NOT MET.

>  <compound>
CNC(=O)c1c(-c2ccc(F)cc2)oc2cc3c(cc12)C(C)OC(CS(C)(=O)=O)CN3S(C)(=O)=O (racemic)

>  <label-class>
NOT MET

$$$$
>  <compound>
CNC(=O)c1c(-c2ccc(F)cc2)oc2cc3c(cc12)C(C)CCCN3S(C)(=O)=O (racemic)

>  <label-class>
MET

$$$$
>  <compound>
CNC(=O)c1c(-c2ccc(F)cc2)oc2cc3c(cc12)[C@H](C)OCCN3S(C)(=O)=O

>  <label-class>
MET

$$$$
>  <compound>
CNC(=O)c1c(-c2ccc(F)cc2)oc2cc3c(cc12)[C@H](C)O[C@H](CS(C)(=O)=O)CN3S(C)(=O)=O

>  <label-class>
NOT MET

$$$$
>  <compound>
CNC(=O)c1c(-c2ccc(F)cc2)oc2cc3c(cc12)[C@H](C)O[C@H](CO)CN3S(C)(=O)=O

>  <label-class>
MET

$$$$
>  <compound>
CNC(=O)c1c(-c2ccc(F)cc2)oc2cc(N(CCO)S(C)(=O)=O)c(C3CC3)cc12 [NESBUVIR]

>  <label-class>
NOT MET

$$$$

====

Experiment: AUC (infinity) in Sprague-Dawley rat at 1 mg/kg, iv
Format: ADME, organism-based
Set-up: dose 1 mg/kg, time infinity, route intravenous
Conditions: in vivo
Recorded AUC(0-inf) for the following compounds

>  <structure-string>
CNC(=O)c1c(-c2ccc(F)cc2)oc2cc3c(cc12)[C@H](C)O[C@H](CO)CN3S(C)(=O)=O

>  <measurement-units>
ng·h/mL

>  <AUC(0-inf)>
759

$$$$
>  <structure-string>
CNC(=O)c1c(-c2ccc(F)cc2)oc2cc3c(cc12)[C@@H](C)OCCN3S(C)(=O)=O

>  <measurement-units>
ng·h/mL

>  <AUC(0-inf)>
234

$$$$
>  <structure-string>
CNC(=O)c1c(-c2ccc(F)cc2)oc2cc3c(cc12)[C@H](C)NC(=O)CN3S(C)(=O)=O

>  <measurement-units>
ng·h/mL

>  <AUC(0-inf)>
379

$$$$

====

Experiment: Metabolic stability in human liver microsomes assessed as parent compound remaining after 60 mins
Type: ADME, microsome
Details: read-out: Stability
Lab note: anything with remaining at 1 h below 50% is marked y; values at 50% or higher are marked n.

>  <compound>
CNC(=O)c1c(-c2ccc(F)cc2)oc2cc(N(CCO)S(C)(=O)=O)c(C3CC3)cc12

>  <label-class>
n

$$$$
>  <compound>
CNC(=O)c1c(-c2ccc(F)cc2)oc2cc3c(cc12)[C@H](C)O[C@H](CS(C)(=O)=O)CN3S(C)(=O)=O

>  <label-class>
n

$$$$
>  <compound>
CNC(=O)c1c(-c2ccc(F)cc2)oc2cc3c(cc12)C(C)OC(CO)CN3S(C)(=O)=O (racemic)

>  <label-class>
n

$$$$
>  <compound>
CNC(=O)c1c(-c2ccc(F)cc2)oc2cc3c(cc12)[C@H](C)O[C@H](CO)CN3S(C)(=O)=O

>  <label-class>
n

$$$$
>  <compound>
CNC(=O)c1c(-c2ccc(F)cc2)oc2cc3c(cc12)C(C)CCCN3S(C)(=O)=O (racemic)

>  <label-class>
y

$$$$
>  <compound>
CNC(=O)c1c(-c2ccc(F)cc2)oc2cc3c(cc12)C(C)OC(CS(C)(=O)=O)CN3S(C)(=O)=O (racemic)

>  <label-class>
n

$$$$
>  <compound>
CNC(=O)c1c(-c2ccc(F)cc2)oc2cc3c(cc12)[C@H](C)OCCN3S(C)(=O)=O

>  <label-class>
y

$$$$

====

Test: AUC (infinity) in Sprague-Dawley rat at 1 mg/kg, iv
Assay type: ADME, organism-based
Set-up: dose 1 mg/kg, time infinity, route intravenous
Settings: in vivo
Recorded AUC(0-inf) for the following compounds
observed-property: AUC(0-inf) (ng·h/mL)

>  <compound>
CNC(=O)c1c(-c2ccc(F)cc2)oc2cc3c(cc12)C(C)OC(CS(C)(=O)=O)CN3S(C)(=O)=O (racemic)

>  <value-reported>
1060

$$$$
>  <compound>
CNC(=O)c1c(-c2ccc(F)cc2)oc2cc(N(CCO)S(C)(=O)=O)c(C3CC3)cc12

>  <value-reported>
1610

$$$$
>  <compound>
CNC(=O)c1c(-c2ccc(F)cc2)oc2cc3c(cc12)[C@H](C)CCCN3S(C)(=O)=O

>  <value-reported>
439

$$$$
>  <compound>
CNC(=O)c1c(-c2ccc(F)cc2)oc2cc3c(cc12)[C@H](C)n1nncc1CN3S(C)(=O)=O

>  <value-reported>
1300

$$$$
